# Procedure Summary: chemical genetic growth profiling, strain panel (AID 1159580);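 also: tested at 20 µM; growth read once vehicle control cultures reached saturation at 30 °C; 1 = growth at the plate median or of vehicle wells; lower values mean less growth of the strain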
# Test Settings: S. cerevisiae deletion strains, growth OD, locus YNL067W, strain RPL9B, active compounds read low
Out of some 5,500 compounds screened, about 2,000 (36%) were called active. Not shown: some 18% with an inconclusive outcome. This is one part of the list.
Consider the following compounds and their measured normalized growth readings.
Measured Attribute: normalized growth

{"Compound": "COC1=CC23CCCN2CCc2cc4c(cc2C3C1O)OCO4 (centres undefined)", "Measured Attribute": "normalized growth", "Data Value": 0.99}
{"Compound": "CC(C)N1C(=O)c2ccccc2NS1(=O)=O", "Measured Attribute": "normalized growth", "Data Value": 0.995}
{"Compound": "O=C(O)c1cc(=O)c2ccccc2[nH]1", "Measured Attribute": "normalized growth", "Data Value": 0.998}
{"Compound": "CCCCN(CC)c1c([N+](=O)[O-])cc(C(F)(F)F)cc1[N+](=O)[O-]", "Measured Attribute": "normalized growth", "Data Value": 1.01}
